Recorded values, source patent US10702592B2.

- tgt: HLA-A*02:01 (Homo sapiens, UniProt P04439, D140Y/D185E/D98H/E176V/E277Q/G131W/G231S/I119V/I121R/I166T/I218V/L300P/L318F/N151K/N90K/P208A/P217A/Q86G/Q94H/R138H/R169H/T345S)
- assay-summary: MHC binding assay (UV-ligand exchange, beta2m ELISA)
- test-conditions: binding to HLA-A*02:01, UV-ligand exchange
- Source text: Candidate peptides for T cell based therapies according to the present invention were further tested for their MHC binding capacity (affinity). The individual peptide-MHC complexes were produced by UV-ligand exchange, where a UV-sensitive peptide is cleaved upon UV-irradiation, and exchanged with the peptide of interest as analyzed. Only peptide candidates that can effectively bind and stabilize the peptide-receptive MHC molecules prevent dissociation of the MHC complexes. […]
quantity-measured: Peptide exchange (MHC class I binding score, peptide exchange yield)

substance | meas-value
129 (SLFEASQQL; listed as Homo sapiens) [compound 129] | “+++” (≥50 = +++)
211 (FIDDLFAFV; listed as Homo sapiens) [compound 211] | “+++” (≥50 = +++)
167 (SLFSITKSV; listed as Homo sapiens) [compound 167] | “+++” (≥50 = +++)
311 (YLHRQVAAV; listed as Homo sapiens) [compound 311] | “+++” (≥50 = +++)
271 (YLLDQPVLEQRL; listed as Homo sapiens) [compound 271] | “++++” (≥75% = ++++)
39 (QLLPQGIVPAL; listed as Homo sapiens) [compound 39] | “+++” (≥50 = +++)
172 (TLQDSLEFI; listed as Homo sapiens) [compound 172] | “++++” (≥75% = ++++)

Attention now turns to another entry.
Briefly, Peptide exchange (MHC class I binding score, peptide exchange yield) measured for 291 (KIIDTAGLSEA; listed as Homo sapiens) [compound 291] : “+++” (≥50 = +++)

###

- tgt: HLA-A*02:01 (Homo sapiens, UniProt P04439, D140Y/D185E/D98H/E176V/E277Q/G131W/G231S/I119V/I121R/I166T/I218V/L300P/L318F/N151K/N90K/P208A/P217A/Q86G/Q94H/R138H/R169H/T345S)
- assay-summary: MHC binding assay (UV-ligand exchange, beta2m ELISA)
- test-conditions: binding to HLA-A*02:01, UV-ligand exchange
- Description: Candidate peptides for T cell based therapies according to the present invention were further tested for their MHC binding capacity (affinity). The individual peptide-MHC complexes were produced by UV-ligand exchange, where a UV-sensitive peptide is cleaved upon UV-irradiation, and exchanged with the peptide of interest as analyzed. Only peptide candidates that can effectively bind and stabilize the peptide-receptive MHC molecules prevent dissociation of the MHC complexes. […]
quantity-measured: Peptide exchange (MHC class I binding score, peptide exchange yield)

substance | meas-value
199 (SLNSTTWKV; listed as Homo sapiens) [compound 199] | “+++” (≥50 = +++)
124 (FLGVVVPTV; listed as Homo sapiens) [compound 124] | “+++” (≥50 = +++)
280 (SLLNHLPYL; listed as Homo sapiens) [compound 280] | “++++” (≥75% = ++++)
40 (FLNSVIVDL; listed as Homo sapiens) [compound 40] | “++++” (≥75% = ++++)
164 (SLFDGAVISTV; listed as Homo sapiens) [compound 164] | “+++” (≥50 = +++)

Briefly, Peptide exchange (MHC class I binding score, peptide exchange yield) measured for 16 (TLIAAILYL; listed as Homo sapiens) [compound 16] : “++” (≥20% = ++)

Briefly, Peptide exchange (MHC class I binding score, peptide exchange yield) measured for 101 (SLDQSTWNV; listed as Homo sapiens) [compound 101] : “++++” (≥75% = ++++)
